- Test system: wheat
- test.protocol: Test B postemergence herbicide test
- Format: in vivo, Triticum aestivum
- Set-up: key: 0 = no effect, 100 = complete control
- conditions.used: postemergence, 125 g ai/ha; scale 0 to 100
measured.attribute: Wheat plant response rating

# compound, tested.target, measured.attribute, obs.value
data = [
    ("C=CCN(C(C)=O)C(=O)c1ccc(F)c(NC(=O)c2cc(C(C)(C)C)nn2CC)c1 [Compound 442]", "wheat", "Wheat plant response rating", 20),
    ("C=CCN(CC=C)C(=O)c1ccc(F)c(NC(=O)c2cc(C(C)(C)C)nn2CC)c1 [Compound 431]", "wheat", "Wheat plant response rating", 30),
    ("C=CCOc1cccc(NC(=O)c2cc(C(C)(C)C)nn2CC)c1 [Compound 412]", "wheat", "Wheat plant response rating", 10),
    ("C=CCN(CC=C)C(=O)c1cccc(NC(=O)c2nn(C(C)(C)C)nc2C)n1 [Compound 439]", "wheat", "Wheat plant response rating", 0),
    ("CCOC(=O)c1ccnc(NC(=O)c2nn(C(C)(C)C)nc2C)c1 [Compound 421]", "wheat", "Wheat plant response rating", 0),
    ("CCc1nn(C(C)(C)C)nc1C(=O)Nc1cccc(C(=O)NC2CC2)c1 [Compound 417]", "wheat", "Wheat plant response rating", 10),
]

----------
- Tested on: barnyardgrass
- test.protocol: Test B pre-/postemergence herbicide test
- Assay type: in vivo, Echinochloa crus-galli
- conditions.used: preemergence, 125 g ai/ha; 0 to 100 scale, 0 is no effect, 100 is complete control
Plant response rating, Barnyardgrass: recorded values
measured.attribute: Plant response rating, Barnyardgrass

# molecule, tested.target, obs.value
records = [
    ("CCCn1nc(C(C)(C)C)cc1C(=O)Nc1cccc(C(=O)NCC)c1 [Compound 57]", "barnyardgrass", 50),
    ("CC(=NO)c1cccc(NC(=O)c2cc(C(C)(C)C)nn2C)c1 [Compound 102]", "barnyardgrass", 80),
    ("CC(=NO)c1ccnc(NC(=O)c2cc(C(C)(C)C)nn2C)n1 [Compound 164]", "barnyardgrass", 0),
    ("CCN(CC)C(=O)c1cc(NC(=O)c2cc(C(C)(C)C)nn2CC)ccc1C [Compound 69]", "barnyardgrass", 0),
    ("CCn1nc(C(C)(C)C)cc1C(=O)Nc1cccc(C(=O)OC(C)C)c1C [Compound 92]", "barnyardgrass", 0),
]

----------
- Test system: velvetleaf
- test.protocol: Test A pre-/postemergence herbicide test
- Format: in vivo, Abutilon theophrasti
- conditions.used: preemergence, 500 g ai/ha; visual injury, 0 to 100 scale (0 no effect, 100 complete control)
Outcome label depends on Velvetleaf plant response rating relative to 20: at/above gives 1 (yes), below gives 0 (no).

# chemical.structure, tested.target, answer.label
rows = [
    ("CCn1nc(C(C)(C)C)cc1C(=O)Nc1cncc(C(=O)N(C)C)n1", "velvetleaf", "1 (yes)"),
    ("CCN(CC)C(=O)c1cccc(NC(=O)c2cc(C(C)(C)C)nn2CC)n1", "velvetleaf", "1 (yes)"),
    ("COC(=O)c1cccc(NC(=O)c2cc(C(C)(C)C)nn2C)n1", "velvetleaf", "0 (no)"),
    ("CCn1nc(C(C)(C)C)nc1C(=O)Nc1cc(C(=O)N(C)C)ccc1F", "velvetleaf", "1 (yes)"),
    ("CCc1nn(C2CCCC2)nc1C(=O)Nc1cccc(C(=O)N(C)C)c1", "velvetleaf", "1 (yes)"),
    ("CCn1nc(C(C)(C)C)cc1C(=O)Nc1cccc(C#N)c1", "velvetleaf", "1 (yes)"),
]

----------
Plant response rating, Cupgrass, Woolly: recorded values
- Test system: woolly cupgrass
- test.protocol: Test C pre-/postemergence herbicide test
- Assay type: in vivo, Eriochloa villosa
- conditions.used: postemergence, 125 g ai/ha; scale 0 to 100

# compound, tested.target, Plant response rating, Cupgrass, Woolly
records = [
    ("C#CCOC(=O)c1cccc(NC(=O)c2cc(C(C)(C)C)nn2CC)c1 [Compound 84]", "woolly cupgrass", 0),
    ("CCn1nc(C(C)(C)C)cc1C(=O)Nc1ccc(F)c(C(=O)NCCF)c1 [Compound 60]", "woolly cupgrass", 5),
    ("CCn1nc(C(C)(C)C)cc1C(=O)Nc1cccc(C(=O)NC2CC2)n1 [Compound 146]", "woolly cupgrass", 10),
    ("C=CCOC(=O)c1cccc(NC(=O)c2cc(C(C)(C)C)nn2CC)c1 [Compound 85]", "woolly cupgrass", 50),
]

----------
- Test system: barnyardgrass
- test.protocol: Test C flooded paddy test
- Type: in vivo, Echinochloa crus-galli
- conditions.used: 500 g ai/ha, visual rating after 12 to 14 days, scale 0 to 100 (0 no effect, 100 complete control)
measured.attribute: Plant response rating, Barnyardgrass

# chemical.structure, obs.value
measured = [
    ("CCNC(=O)c1ccc(F)c(N(C(C)=O)C(=O)c2cc(C(C)(C)C)nn2CC)c1", 90),
    ("C=CCOc1cccc(NC(=O)c2cc(C(C)(C)C)nn2CC)c1", 45),
    ("CCNC(=O)c1ccnc(NC(=O)c2cc(C(C)(C)C)nn2CC)c1", 85),
    ("CCOC(=O)c1cccc(NC(=O)c2cc(C(C)(C)C)nn2CCF)c1", 80),
    ("Cc1nn(C(C)(C)C)nc1C(=O)Nc1cccc(C(=O)N(C)C)c1", 95),
    ("C=CCN(C)C(=O)c1ccnc(NC(=O)c2cc(C(C)(C)C)nn2CC)c1", 80),
    ("CCn1nc(C(C)(C)C)cc1C(=O)Nc1cc(C#N)ccc1F", 15),
]

----------
- Tested on: pigweed
- test.protocol: Test B pre-/postemergence herbicide test
- Format: in vivo, Amaranthus retroflexus
- conditions.used: postemergence, 500 g ai/ha; scale 0 to 100, 0 is no effect, 100 is complete control
Pigweed plant response rating: recorded values

# compound, tested.target, Pigweed plant response rating
data = [
    ("CCOC(=O)c1ccc(F)c(NC(=O)c2cc(C3(C)CC3)nn2CC)c1", "pigweed", 100),
    ("CCn1nc(C2(C)CC2)cc1C(=O)Nc1cccc(C(=O)N2CC=CC2)c1", "pigweed", 90),
    ("CCC1=NN(C(C)(C)C)CC1C(=O)Nc1cc(C(=O)N2CCCC2)ccc1F (racemic)", "pigweed", 60),
    ("CCn1nc(C(C)(C)C)cc1C(=O)Nc1cccc(OC(C)C)c1", "pigweed", 90),
    ("CCn1nc(C(C)(C)C)cc1C(=O)Nc1ccnc(C(=O)NCCF)c1", "pigweed", 70),
    ("CCn1nc(C(C)(C)C)cc1C(=O)Nc1cncc(C(=O)N(C)C)n1", "pigweed", 30),
    ("CCCOC(=O)c1cc(NC(=O)c2cc(C(C)(C)C)nn2CC)c(F)cc1F", "pigweed", 80),
]

----------
- Tested on: barnyardgrass
- test.protocol: Test A pre-/postemergence herbicide test
- Assay type: in vivo, Echinochloa crus-galli
- conditions.used: Postemergence, 500 g ai/ha; 0 to 100 scale, 0 no effect, 100 complete control
measured.attribute: Barnyardgrass plant response rating

# chemical.structure, obs.value
measured = [
    ("CCNC(=O)c1cc(C)cc(NC(=O)c2cc(C(C)(C)C)nn2CC)n1", 30),
    ("CCc1nn(C(C)(C)C)nc1C(=O)Nc1cccc(C(=O)NC2CC2)c1", 65),
    ("CCc1nc(C(C)(C)C)sc1C(=O)Nc1cccc(C(=O)NCC2CC2)n1", 0),
    ("C#CCNC(=O)c1cccc(NC(=O)c2sc(C(C)(C)C)nc2C)c1", 10),
    ("CCn1nc(C(C)(C)C)nc1C(=O)Nc1cc(C(=O)N(C)C)ccc1F", 80),
    ("CCn1nc(C(C)(C)C)cc1C(=O)Nc1nccc(OC)n1", 0),
    ("CCn1nc(C(C)(C)C)cc1C(=O)Nc1cncc(C(=O)N(C)C)n1", 70),
    ("CCn1nc(C(C)(C)C)cc1C(=O)Nc1ccnc(C(=O)NCCF)c1", 30),
    ("CCn1nc(C(C)(C)C)cc1C(=O)Nc1nc(C(=O)N(C)C)ccc1F", 0),
    ("Cc1nc(C(C)(C)C)sc1C(=O)Nc1cccc(C(=O)NCCF)c1", 10),
    ("C=CCOC(=O)c1cccc(NC(=O)c2cc(C(C)(C)C)nn2CC)c1C", 20),
    ("CCNC(=O)c1cc(C)nc(NC(=O)c2cc(C(C)(C)C)nn2CC)c1", 45),
    ("CC(=NO)c1ccnc(NC(=O)c2cc(C(C)(C)C)nn2C)n1", 10),
    ("C=CCNC(=O)c1cccc(NC(=O)c2sc(C(C)(C)C)nc2C)c1", 45),
]
